- assay info: Plasma pharmacokinetics of TSU-68 in phase I patients
- Format: in vivo, human
- condition context: human, plasma, oral, 200 mg/m2, C max, b.i.d. after meal, 3rd dose, 200 mg/m^2, n=3, mean ± SD
parameter: Cmax
Numeric answer plus unit only.

Query: Tell me its Cmax given Cc1[nH]c(/C=C2\C(=O)Nc3ccccc32)c(C)c1CCC(=O)O as the entry.
Response: 6000 ng/mL

----------
- assay info: Plasma pharmacokinetics of TSU-68 in phase I patients
- Assay type: in vivo, human
- condition context: human, plasma, oral, 400 mg/m2, T max, t.i.d. after meal, 84th dose, 400 mg/m^2, n=6, mean ± SD
parameter: Tmax (h)
Answer format: numeric, h implied, no suffix.

Query: For Cc1[nH]c(/C=C2\C(=O)Nc3ccccc32)c(C)c1CCC(=O)O , write its Tmax.
Response: 2.92
